systemTested: T1, TGFβ2 (transforming growth factor beta 2) (Homo sapiens, UniProt P61812 SEQ:1-112)
T1 sequence: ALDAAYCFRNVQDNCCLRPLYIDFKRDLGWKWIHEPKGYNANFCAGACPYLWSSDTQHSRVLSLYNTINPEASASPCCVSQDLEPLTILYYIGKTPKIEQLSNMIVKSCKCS
assayComment: filter; 37C; Ki 30 nM in cell assay
experimentalParameters: chain copies: 2 (inferred, homodimer)
readout: Kd

* 21a-4 (ssRNA, 2'-F C and U) RNA: GGGAGGACGAUGCGGCGUUGUUUAGUCGUAUGUAUAUACUAAGUCCGCUUGUCCCCAGACGACUCGCCCGA | ~3 nM

Where these numbers come from: patent US20040258656
